- Measured Target: Glucagon-like peptide 1 receptor (Homo sapiens) (UniProt P43220)
- Sequence (P43220 whole entry, looked up): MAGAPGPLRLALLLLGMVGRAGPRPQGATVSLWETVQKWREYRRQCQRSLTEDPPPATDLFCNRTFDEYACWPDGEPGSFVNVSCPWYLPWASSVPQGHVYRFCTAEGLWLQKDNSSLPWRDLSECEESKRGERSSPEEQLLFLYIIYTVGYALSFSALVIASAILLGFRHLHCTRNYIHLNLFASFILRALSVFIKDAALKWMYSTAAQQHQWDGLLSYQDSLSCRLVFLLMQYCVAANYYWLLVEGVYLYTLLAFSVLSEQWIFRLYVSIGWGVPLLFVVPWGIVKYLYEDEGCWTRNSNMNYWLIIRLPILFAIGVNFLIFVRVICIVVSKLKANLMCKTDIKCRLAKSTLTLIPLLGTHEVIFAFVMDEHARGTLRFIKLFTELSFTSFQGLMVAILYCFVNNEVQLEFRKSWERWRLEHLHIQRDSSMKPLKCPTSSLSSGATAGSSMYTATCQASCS
- Experiment: qHTS of GLP-1 Receptor Inverse Agonists (Inhibition Mode); also: nearly all actives have a fitted effect of over 55% in size
- Experimental Parameters: HEK293 GLP-1R CRE-luciferase, luminescence, 24 h, GLP-1R form is constitutively active; series mostly up to 38.3 µM
In all, about 410,000 compounds went through this assay and about 6,400 (1.6%) were called active. Not shown: some 20% with an inconclusive outcome. Calls follow the shape of the dose curve; as a rule, active = well fitted inhibition curve with a large enough effect; inconclusive = small, poorly fitted or top-dose-only effect; inactive = no such curve, though single readings can be large or run the other way. The entries come from a sample that favours actives as a whole.
Mark one answer only. Choices: TRUE for active, FALSE for inactive

Worked examples, 10 compounds total:
- Compound: "CC(=O)Nc1ccc(-c2ccnc3c2CC(C(=O)NC(C)C)O3)cc1 (stereo unspecified)"
  Class Name: "FALSE"
- Compound: "CC1(C(=O)NS(=O)(=O)c2ccccc2)CCN1C(=O)c1ccccc1 (stereo unspecified)"
  Class Name: "FALSE"
- Compound: "CC(C)(C)NC(=O)Cn1nnc(-c2ccccc2Cl)n1"
  Class Name: "FALSE"
- Compound: "O=C(NCCc1csc(-c2ccccc2)n1)c1ccccc1F"
  Class Name: "FALSE"
- Compound: "COc1ccccc1-n1c(SCC(=O)Nc2ccc(Cl)cc2)nc(O)c(Cc2ccccc2)c1=O"
  Class Name: "FALSE"
- Compound: "O=C(Nc1ccc(Cl)cc1)C1Cc2c(-c3ccc4c(c3)OCO4)ccnc2O1 (stereo unspecified)"
  Class Name: "TRUE"
- Compound: "COc1ccc(NC(=O)CCCNC(=O)Cn2cnc3sc4c(c3c2=O)CCCC4)cc1OC"
  Class Name: "FALSE"
- Compound: "Cc1ccc(S(=O)(=O)N(CC(=O)Nc2cccnc2)c2ccc(Br)cc2)cc1"
  Class Name: "TRUE"
- Compound: "Cc1ccccc1CN1C(=O)CSCC1(C)C(=O)Nc1c(C)cccc1C (stereo unspecified)"
  Class Name: "FALSE"
- Compound: "Cc1ccc([N+](=O)[O-])cc1S(=O)(=O)N1CCCN(C)CC1"
  Class Name: "FALSE"

Incoming: Status in this test for O=C(NCCN1CCOCC1)c1ccc2c(c1)N(Cc1cccc(Cl)c1)C(=O)c1ccccc1S2(=O)=O ?
Outgoing: FALSE

Incoming: # lookup: test call for COc1ccc(-c2nc(CCNC(=O)c3ccc(Br)o3)cs2)cc1
Outgoing: FALSE

Incoming: Can you look up the reported call for CCNC(=O)CN(c1ccc(C)cc1)S(=O)(=O)c1ccc(SC)cc1 for me?
Outgoing: FALSE
